test: inhibitors of larval lipid processing in zebrafish, primary screen, whole organism, PED6 fluorescence, gall bladder and intestine (AID 686); conditions: Zebrafish larvae PED6 lipid processing, fluorescence scoring; screened at 20 µM (by protocol);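 further: larvae 5 to 7 days old with five fish per well; signal comes from phospholipase A2 cleavage of quenched PED6 carried via bile; overnight exposure to compound and PED6 before scoring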
The source made the active and inactive calls.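 How the source made its calls: active means a full or partial loss of lipid-probe fluorescence in the fish gall bladder, intestine or both, judged by eye; inactive means no fluorescence loss, or compound toxic to the fish.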
Hi! Could you answer with just one of these? active, inactive

Observe how each entry below is paired with its result.
CCOCCCN(Cc1cc2cc(C)cc(C)c2[nH]c1=O)C(=O)N(CC)CC inactive
CCOc1ccc(NS(=O)(=O)c2cc(Cl)ccc2OC)cc1 inactive

What classification did Cc1cc(NC(=O)C(C)(C)C)no1 end up with in this test? inactive

What classification did O=C(O)c1ccc(CSc2ncn[nH]2)cc1 end up with in this test? inactive

What classification did CCc1nnc(NC(=O)CSc2nc(-c3ccc(OC)cc3)ns2)s1 end up with in this test? inactive

What classification did O=C(c1nn2cccnc2c1Cl)N1CCN(c2ccccc2)CC1 end up with in this test? inactive

What classification did O=C(CSc1nnc(Cc2ccccc2)n1-c1cccc(Cl)c1)N1CCOCC1 end up with in this test? inactive

---

target: Voltage-gated potassium channel subunit beta-2 (Rattus norvegicus); assay: enhancers of rat Kvbeta2 NADPH turnover – biochemical, NADPH fluorescence, primary screen (AID 623); conditions: Recombinant KvBeta, NADPH fluorescence decrease slope, 10 min; at 10 µM; active compounds read low;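 further: fluorescence intensity change per second fitted from 20 to 320 s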
Calls of active or inactive are those of the source.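 The calls were made as follows: active = NADPH fluorescence slope more negative than the mean of all samples by about 3 SD, 99.7% confidence; inactive = the rest.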
quantity name: NADPH fluorescence slope

As a guide, the following entries are already answered.
compound	NADPH fluorescence slope
N#Cc1c(/N=C/c2ccco2)sc2c1CCC2	-0.000202 (inactive)
CSc1nc(N2CCOCC2)c2ccccc2n1	-3.9e-05 (inactive)
O=C(O)CCCC(=O)NCCc1ccncc1	-7e-06 (inactive)

Which NADPH fluorescence slope value is on record for CCC(C)(C)NC(=O)CN(C(=O)c1snc(C(N)=O)c1N)c1ccc2c(c1)OCO2 ? 3.3e-05 (inactive)

Which NADPH fluorescence slope value is on record for O=C(Nc1cc(C(F)(F)F)ccc1Cl)c1cc(C2CC2)on1 ? -5.4e-05 (inactive)

Which NADPH fluorescence slope value is on record for CC1(C)C(c2cccs2)=[N+]([O-])C2(CCCCC/C2=N\O)N1O (stereo not drawn) ? -4.9e-05 (inactive)

Which NADPH fluorescence slope value is on record for CC1CN(c2nc3ccccc3nc2C(C#N)C(=O)OC2CCCCC2)CC(C)O1 (stereo not drawn) ? 2.4e-05 (inactive)

Which NADPH fluorescence slope value is on record for O=C1C2C3C=CC(C3=C3CCCCC3)C2C(=O)N1c1ccccc1 (stereo not drawn) ? -3.9e-06 (inactive)

Which NADPH fluorescence slope value is on record for O=C(C1CC2CCC1C2)N1CCN(Cc2ccc3c(c2)OCO3)CC1 (stereo not drawn) ? -2.2e-05 (inactive)

Which NADPH fluorescence slope value is on record for CC(C)NC(=O)c1ccccc1NC(=O)CCS(=O)(=O)Cc1ccccc1 ? 2.6e-05 (inactive)

Which NADPH fluorescence slope value is on record for Cc1nnc(NC(=O)CSc2nnc(-c3ccc(S(=O)(=O)N4CCCC4)cc3)n2C)s1 ? -2.2e-05 (inactive)

Which NADPH fluorescence slope value is on record for Cc1noc(C)c1CSc1nnc(-c2ccncc2)n1-c1cccc(Cl)c1C ? 5.5e-05 (inactive)

Which NADPH fluorescence slope value is on record for CCOC(=O)Nc1ccc(OC)cc1S(=O)(=O)N1CCCCC1 ? 2.6e-05 (inactive)

Which NADPH fluorescence slope value is on record for c1ccc2c(SCc3cn4cccnc4n3)ncnc2c1 ? -5.7e-05 (inactive)

Which NADPH fluorescence slope value is on record for CCOc1ccc(CCNc2nc3c(c(=O)n(C)c(=O)n3C)n2CC)cc1OCC ? 3.7e-06 (inactive)

Which NADPH fluorescence slope value is on record for CN(C)S(=O)(=O)N1CCN(S(=O)(=O)c2ccc(F)cc2)CC1 ? -9.3e-07 (inactive)

Which NADPH fluorescence slope value is on record for CN1C(=O)c2oc3ccccc3c(=O)c2C1c1ccccn1 (stereo not drawn) ? -4.2e-05 (inactive)

Which NADPH fluorescence slope value is on record for CC(=O)N1CCC2(CC1)CC(=O)c1cc(OCC(=O)NCc3ccco3)ccc1O2 ? 1.5e-05 (inactive)

Which NADPH fluorescence slope value is on record for CCn1c(CSc2nnc(-c3cccnc3)n2-c2ccccc2C)nc2cc(C(=O)O)ccc21 ? -0.000162 (inactive)

Which NADPH fluorescence slope value is on record for ON=C1/C(=N\O)CC2(C/C1=N/O)OCCO2 ? -3.5e-05 (inactive)

Which NADPH fluorescence slope value is on record for COc1ccc(OC)c(C(=O)CSc2nc3ncccc3[nH]2)c1 ? -7e-05 (inactive)

Which NADPH fluorescence slope value is on record for COc1ccc(NS(=O)(=O)c2c(C)[nH]c(=O)[nH]c2=O)c(OC)c1 ? -2.6e-05 (inactive)

Which NADPH fluorescence slope value is on record for CN1CCN(S(=O)(=O)c2ccc(NC(=O)c3ccc(F)cc3)cc2)CC1 ? -2.3e-05 (inactive)
